- testedOn: Protein deacetylase HDAC6 (Homo sapiens)
- conditionInfo: at 10 µM
The campaign covered roughly 5,600 compounds. About 390 (7%) showed an effect of 50% or more. The sample as a whole holds a higher share of strong results than the screen did.
Listed next: entries and their corresponding inhibition.
Quote the value and follow it with the unit of measurement.

>>> recordedresult("O=C(O)c1cc(-c2ccccc2)nc2ccccc12")
"16.3%"
>>> recordedresult("CCN(CC)CCOC(=O)C(Cc1cccc2ccccc12)CC1CCCO1 (stereo not drawn)")
"2%"
>>> recordedresult("CCCn1c(=O)c2nc(C34CC5CC(CC3C5)C4)[nH]c2n(CCC)c1=O")
"2.81%"

Problem: Field request: inhibition | item: CCCCCCCCCCCC(=O)N(CCO)CCO
Solution: 14.4%

Problem: Entry to check: CN(C)C(=O)N[C@H]1CC[C@H](CCN2CCN(c3cccc(Cl)c3Cl)CC2)CC1
Solution: 18.9%

Problem: Entry to check: COc1cc2ncc(-c3ccccc3)nc2cc1OC
Solution: 97.8%

Problem: Entry to check: O=C(Cc1ccc(-c2ccccc2)cc1)Nc1ccccn1
Solution: 56.6%
